Experiment: Pharmacokinetic parameters in rhesus monkeys
Type: in vivo
Details: both sexes, rhesus monkey, plasma, 50 mg/kg, rhesus monkeys, 50 mg/kg, single dose, plasma; read-out: MRT
EXPERIMENTAL ENDPOINT: MRT (h)

>>> measured_number("COc1nsc(NC(=O)N2C[C@H]3C[C@H](N(C)c4ncnc5[nH]ccc45)C[C@H]3C2)n1 [Bisulfate]")
6.3

* * *

Test: Pharmacokinetic parameters in rhesus monkeys
Assay type: in vivo
Conditions: both sexes, rhesus monkey, plasma, 50 mg/kg, rhesus monkeys, 50 mg/kg, single dose, plasma; read-out: Cmax
EXPERIMENTAL ENDPOINT: Cmax

>>> result("COc1nsc(NC(=O)N2C[C@H]3C[C@H](N(C)c4ncnc5[nH]ccc45)C[C@H]3C2)n1 [Bisulfate]")
"9940 ng/mL"
